runDescription: CHI Log D procedure
Format: physicochemical
conditionsUsed: pH 7.4, CHI Log D
Where chromatographic logD equals or exceeds 2, the correct label is True; where it does not, the label is False.

- molecule: "CC(=O)N1CCC[C@]12CC=CCCCC1(CCCC=CCCCOC(=O)N3CC[C@@](C(=O)N[C@@H](Cc4ccccc4)C(=O)N[C@@H](Cc4csc5ccccc45)C(=O)N[C@@H](CCC(N)=O)C(N)=O)(C3)NC(=O)[C@H](CC(N)=O)NC(=O)[C@H](Cc3ccccc3)NC(=O)[C@H](C)NC(=O)[C@H](C)NC(=O)[C@H](CCC(=O)O)NC(=O)[C@H](CC(=O)O)NC1=O)NC(=O)[C@H](C)NC(=O)[C@H](CC(=O)O)NC2=O (stereo partly drawn) [I-462]"
  classAssignment: "False"

*Q* Record CC[C@H](C)[C@@H]1NC(=O)[C@H](CC(=O)O)NC(=O)[C@]2(CC=CCCCC3(CCCC=CCCCCCC[C@@](C)(C(=O)N[C@@H](Cc4ccccc4)C(=O)N[C@@H](Cc4csc5ccccc45)C(=O)N[C@@H](CC(C)C)C(N)=O)NC(=O)[C@H](CCC(N)=O)NC(=O)[C@H](Cc4ccccc4)NC(=O)[C@H](C)NC(=O)[C@H](C)NC(=O)[C@H](CCC(=O)O)NC(=O)[C@H](CC(=O)O)NC3=O)NC1=O)CCCN2C(C)=O (stereo partly drawn) [I-634] ; criterion: chromatographic logD no lower than 2. Met?
*A* True

*Q* Another: CC(=O)N1CCC[C@]12CC=CCCCC1(CCCC=CCCCCCC[C@@](C)(C(=O)N[C@@H](Cc3ccc(C)cc3)C(=O)N[C@@H](Cc3csc4ccccc34)C(=O)N[C@@H](CCC(N)=O)C(N)=O)NC(=O)[C@H](C)NC(=O)[C@H](Cc3ccccc3)NC(=O)[C@H](C)NC(=O)[C@H](C)NC(=O)[C@H](CC(=O)O)NC(=O)[C@H](CC(=O)O)NC1=O)NC(=O)[C@H](C)NC(=O)[C@H](CC(=O)O)NC2=O (stereo partly drawn) [I-369]
*A* False

*Q* What do you get for CC(=O)N1CCC[C@]12CC=CCCCC1(CCCC=CCCCCCC[C@@](C)(C(=O)N[C@@H](Cc3ccccc3)C(=O)N[C@@H](Cc3csc4ccccc34)C(=O)N[C@@H](CCC(N)=O)C(N)=O)NC(=O)[C@H](CCC(N)=O)NC(=O)[C@H](Cc3ccccc3)NC(=O)[C@H](C)NC(=O)[C@H](C)NC(=O)[C@H](CCC(=O)O)NC(=O)[C@H](CC(=O)O)NC1=O)NC(=O)[C@H](C(C)C)NC(=O)[C@H](CC(=O)O)NC2=O (stereo partly drawn) [I-410] ?
*A* True

*Q* Also CC[C@H](C)[C@@H]1NC(=O)[C@H](CC(=O)O)NC(=O)[C@]2(CC=CCCCC3(CCCC=CCCCCCC[C@@](C)(C(=O)N[C@@H](Cc4ccccc4)C(=O)N[C@@H](Cc4csc5ccccc45)C(=O)N[C@@H](Cc4c[nH]cn4)C(N)=O)NC(=O)[C@H](CCC(N)=O)NC(=O)[C@H](Cc4ccccc4)NC(=O)[C@H](C)NC(=O)[C@H](C)NC(=O)[C@H](CN(CC(=O)O)CC(F)(F)F)NC(=O)[C@H](CC(=O)O)NC3=O)NC1=O)CCCN2C(C)=O (stereo partly drawn) [I-500] ?
*A* True

###

runDescription: CHI Log D procedure
Type: physicochemical
conditionsUsed: pH 7.4
In this section we review reported CHI Log D values for a set of compounds.
Answer with the value's number alone.

Known results for compounds:
- compound: "CC[C@@H](C)[C@@H](NC(=O)[C@H](CCC(N)=O)NC(=O)[C@H](Cc1csc2ccccc12)NC(=O)[C@H](Cc1ccccc1)NC(=O)[C@]1(C)CCCCCCC=CCCCC2(CCCC=CC[C@]3(CCCN3C(C)=O)C(=O)N[C@@H](CC(=O)O)C(=O)N[C@@H](CC(C)C)C(=O)N2)C(=O)N[C@@H](CC(=O)O)C(=O)N[C@@H](CCC(=O)O)C(=O)N[C@@H](C)C(=O)N[C@@H](C)C(=O)N[C@@H](Cc2ccccc2)C(=O)N[C@@H](CC(N)=O)C(=O)N1)C(N)=O (stereo partly drawn) [I-734]"
  CHI Log D: 2.713
- compound: "CC(=O)N1CCC[C@]12CC=CCCCC1(CCCC=CCCCCCC[C@@](C)(C(=O)N[C@@H](Cc3ccccc3)C(=O)N[C@@H](Cc3c[nH]c4ccccc34)C(=O)N[C@@H](CCC(N)=O)C(N)=O)NC(=O)[C@H](C(C)C)NC(=O)[C@H](Cc3ccc(C(F)(F)F)cc3)NC(=O)[C@H](C)NC(=O)[C@H](C)NC(=O)[C@H](CC(=O)O)NC(=O)[C@H](CC(=O)O)NC1=O)NC(=O)[C@H](C)NC(=O)[C@H](CC(=O)O)NC2=O (stereo partly drawn) [I-241]"
  CHI Log D: 2.074

Consider now this further compound.
*Q* Which CHI Log D value is on record for CC(=O)N1CCC[C@]12CC=CCCCC1(CCCC=CCCCCCC[C@@](C)(C(=O)N[C@@H](Cc3ccsc3)C(=O)N[C@@H](Cc3csc4ccccc34)C(=O)N[C@@H](CCC(N)=O)C(N)=O)NC(=O)[C@H](CC(N)=O)NC(=O)[C@H](Cc3ccccc3)NC(=O)[C@H](C)NC(=O)[C@H](C)NC(=O)[C@H](CC(=O)O)NC(=O)[C@H](CC(=O)O)NC1=O)NC(=O)[C@H](CC(C)(C)C)NC(=O)C[C@H](CC(=O)O)NC2=O (stereo partly drawn) [I-1164] ?
*A* 2.13

###

testedOn: full-length beta-Catenin (Uniprot ID P35222) (Homo sapiens, UniProt P35222)
Construct: 10 nM full-length beta-Catenin (Uniprot ID P35222)
Sequence (P35222 1-781): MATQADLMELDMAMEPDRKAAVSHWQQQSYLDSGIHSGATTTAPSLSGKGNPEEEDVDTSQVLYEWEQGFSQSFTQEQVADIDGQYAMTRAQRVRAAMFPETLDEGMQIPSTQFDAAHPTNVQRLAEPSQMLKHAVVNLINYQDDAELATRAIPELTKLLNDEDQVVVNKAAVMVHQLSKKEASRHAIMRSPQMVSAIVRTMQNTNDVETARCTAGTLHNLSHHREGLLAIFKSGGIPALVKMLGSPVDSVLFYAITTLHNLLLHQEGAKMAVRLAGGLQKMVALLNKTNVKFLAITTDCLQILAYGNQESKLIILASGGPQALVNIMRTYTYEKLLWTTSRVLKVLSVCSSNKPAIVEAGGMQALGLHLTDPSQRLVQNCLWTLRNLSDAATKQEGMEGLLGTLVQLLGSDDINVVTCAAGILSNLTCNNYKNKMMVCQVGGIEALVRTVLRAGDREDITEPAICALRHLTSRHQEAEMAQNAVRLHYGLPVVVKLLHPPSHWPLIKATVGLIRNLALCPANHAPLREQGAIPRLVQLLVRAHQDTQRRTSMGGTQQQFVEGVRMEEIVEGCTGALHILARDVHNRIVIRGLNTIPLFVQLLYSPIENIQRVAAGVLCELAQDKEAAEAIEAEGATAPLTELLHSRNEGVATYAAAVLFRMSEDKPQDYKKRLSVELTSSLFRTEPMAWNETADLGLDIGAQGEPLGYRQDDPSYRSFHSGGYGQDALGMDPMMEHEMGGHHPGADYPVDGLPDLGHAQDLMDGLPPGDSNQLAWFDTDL
runDescription: Fluorescence polarization IC50 (beta-catenin / 5FAM-TCF4 10-53 competition)
Type: binding
conditionsUsed: read-out: beta-Catenin FP IC50
Each entry below carries its reported IC50.
Report field: quantity (unit follows the number).

*Q* Name the reported IC50 value associated with the compound C#CCOCCOCCC(=O)NCCCC[C@H](NC(=O)[C@H](CCC(N)=O)NC(=O)[C@H](Cc1csc2ccccc12)NC(=O)[C@H](Cc1ccsc1)NC(=O)[C@]12CCN(C1)C(=O)OCCCC=CCCCC1(CCCC=CC[C@]3(CCCN3C(C)=O)C(=O)N[C@@H](CC(=O)O)C(=O)N[C@@H](CC(C)(C)C)C(=O)N1)C(=O)N[C@@H](CC(=O)O)C(=O)N[C@@H](CC(=O)O)C(=O)N[C@@H](C)C(=O)N[C@@H](C)C(=O)N[C@@H](Cc1ccccc1)C(=O)N[C@@H](CC(N)=O)C(=O)N2)C(N)=O (some centres unmarked)
*A* 7 nM

*Q* Also CC(=O)N1CCC[C@]12CC=CCCCC1(CCCC=CCCCOC(=O)N3CC[C@@](C(=O)N[C@@H](Cc4ccccc4Cl)C(=O)N[C@@H](Cc4csc5ccccc45)C(=O)N[C@@H](CCC(N)=O)C(N)=O)(C3)NC(=O)[C@H](CC(C)C)NC(=O)[C@H](Cc3ccccc3)NC(=O)[C@H](C)NC(=O)[C@H](C)NC(=O)[C@H](CC(=O)O)NC(=O)[C@H](CC(=O)O)NC1=O)NC(=O)[C@H](CC1CCCCC1)NC(=O)[C@H](CC(=O)O)NC2=O (some centres unmarked) [I-1075] , if possible.
*A* 567 nM
